Assay Context: microsomes, 0.25 h
Quantity Kind: Mouse Liver Microsomal Stability (% remaining) 15 min
Please reply with the bare figure in % remaining and do not write the unit itself.

Consider the following illustrative entries.
{"Compound": "COc1cc(-c2c(C#N)c(N)nc3c2c(C)nn3-c2ccc(F)cc2)ccc1O [Compound 10]", "Result": 74}
{"Compound": "Cc1nn(-c2ccc(Cl)cc2)c2nc(N)c(C#N)c(-c3ccc(O)c(O)c3)c12 [Compound 6]", "Result": 93}
{"Compound": "COc1cc(-c2ccnc3c2c(C)nn3-c2ccc(C(F)(F)F)cc2)ccc1O [Compound 32]", "Result": 66}

Now consider a different compound.
Tell us which Mouse Liver Microsomal Stability (% remaining) 15 min value is on record for Cc1ccc(-n2nc(C)c3c(-c4ccc(O)c(O)c4)c(C#N)c(N)nc32)cc1C [Compound 4] 78
